Tested on: RXF 393 renal
Experiment: NCI-60 one-dose screen, 48 h (100 = growth as untreated, 0 = no growth, -100 = all killed)
Details: 10 µM unless noted
The panel holds about 83,000 compounds, 20% with a hit somewhere; the sample as a whole holds those more often.
Rule: growth below 80% gives t. Equal to or above 80% gives f.

Solved entries:
COc1cc(C2CC(c3ccc(C)cc3)=NN2C=O)ccc1Oc1nc2c(c(=O)n(C)c(=O)n2C)n1C (stereo not drawn)    f
Cc1c(C(N)=O)sc2ncn(CC(=O)NN=C3CCCCC3)c(=O)c12    f
CC(C)CCC(=O)[C@@H](C)[C@H]1[C@@H](OC2OCC(O)C(O)C2NS(C)(=O)=O)C[C@H]2[C@@H]3CC=C4C[C@@H](O)CC[C@]4(C)[C@H]3CC[C@]12C (stereo partly drawn)    t

growth under 80%? Item: CCOC(=O)Nc1ccc2nc(Sc3ccc(Cl)cc3)sc2c1
t

Confirm or reject: growth of O=C(C(=O)N1CCCC1)c1cn(CCCn2cc(C(=O)C(=O)N3CCCC3)c3cc(Br)ccc32)c2ccc(Br)cc12 lies strictly below 80%
f

Dear reviewer, please state whether C=C1C(=O)O[C@H]2[C@H]1CC/C(COC(=O)NCc1cccc(OC)c1)=C\CC[C@@]1(C)O[C@@H]21 has growth strictly beneath 80%.
t

Determine whether this molecule shows growth lower than 80% (ties excluded): CCCCCCCCCCCCCCCCCC(=O)OCCCCCCCCCCCCC
f

Find out if reported growth for CC1=C(/C=C/C(C)=C/C=C(C(=O)O)\C(C)=C\C(=O)O)C(C)(C)CCC1 is less than 80%
f

---

Tested on: MALME-3M melanoma
Experiment: NCI-60 one-dose screen, 48 h
Conditions: 10 µM unless noted
The panel holds about 83,000 compounds, 20% with a hit somewhere; the sample as a whole holds those more often. Calls of active or inactive are those of the source. The calls were made as follows: active = growth percent below 10; inactive = the rest.
Answer with one of the outcomes given here: active, inactive

CCN(CC)C(=O)O/N=C(/C)c1ccccc1    inactive
COc1ccc2nc(-c3ccc(-c4noc(-c5ccc(Cl)cc5)n4)cc3)[nH]c2c1    inactive
CCN1C(=O)N(CC)C2C1N=C(SC)N2/N=C/C=C/c1ccccc1OC (stereo unspecified)    inactive
COc1cc(/C=C/c2cc(/C=C/c3ccc(O)c(OC)c3)n(C(=O)c3ccccc3Br)n2)ccc1O    inactive
Cc1[nH]c2ccccc2c1C1=CC(=O)C=CC1=O    inactive

Called result for CCCCCCCCCCCCCC1=NC(C)(C)CN1C(C)C
active

# fetch the recorded call for Oc1ccc(-c2nnc3c4[nH]ccc4ncn23)cc1 here
inactive

Could you kindly confirm the outcome this assay logged for Cc1cc(-c2ccc(N=Nc3c(S(=O)(=O)O)cc4cc(S(=O)(=O)O)cc(O)c4c3O)c(C)c2)ccc1N=Nc1c(S(=O)(=O)O)cc2cc(S(=O)(=O)O)cc(O)c2c1O ?
inactive

Identify the outcome logged in this assay for the compound shown: COc1cc(/C=C2\CN(C(=O)OC(C)(C)C)C/C(=C\c3ccc(O)c(OC)c3)C2=O)ccc1O
inactive

Per the assay record, what outcome was assigned to CC(C)(C)c1ccc(OC(=O)Nc2ccccc2)cc1 ?
inactive

---

System: COLO 205 colon
Assay: NCI-60 one-dose screen, 48 h
Conditions: 10 µM unless noted
About 83,000 compounds went through this panel and 20% of them were active in at least one assay; those are over-represented in the sample as a whole. Active and inactive are the calls of the source. Rule for the calls: active = growth percent below 10; inactive = the rest.
Choose one outcome from this list and give only that: active, inactive

Example results:
CC(C)CCSc1nc(Nc2ccccc2)c(C#N)c(-c2ccc(F)cc2)n1    inactive
CCOC(=O)Cn1c(-c2nonc2NC(=O)c2ccccc2F)nc2ccccc21    inactive
COc1ccc2nc(-c3ccc(-c4noc(-c5ccc(Cl)cc5)n4)cc3)[nH]c2c1    inactive
C=C1C(=O)O[C@H]2[C@H]1CC/C(COC(=O)NCc1[nH]nc3ccccc13)=C\CC[C@@]1(C)O[C@@H]21    active
COc1cc(NC(=O)CSc2nc3ccc(Cl)cc3c(=O)n2-c2ccccc2)cc(OC)c1OC    inactive
O=c1c2cc(Br)cc(Br)c2nc(-c2ccc(Cl)cc2)n1/N=C\c1ccccc1F    inactive

Lab log entry: CCN1C(=O)N(CC)C2C1NN=c1s/c(=C\c3ccco3)c(=O)n12 (stereo not given) — outcome as called in the assay?
active

Tell me the recorded outcome of this test for O=C1C(Cl)=C(Nc2cccc3ccccc23)C(=O)c2ccccc21 .
inactive

Would you mind telling me which call this test gave Clc1cc(Cl)cc(-c2cnc3nonc3n2)c1 ?
inactive

What call does the record list for C=CCN1C(=O)/C(=c2\sc3n(c2=O)C2C(NN=3)N(CC)C(=O)N2CC)c2ccccc21 (stereo not given) ?
active

The values you see were collected from PubChem BioAssay (NCI).
